I'd appreciate it if you could supply herbicidal effect rating, ORYSAT (rice tolerance) values for the items below.
Tested on: Oryza sativa, (L.) Tebonnet
ASSAY TEXT: Rice tolerance to post-transplant applications under flooded paddy conditions (Example 187), ORYSAT (Rice, Tebonnet)
CONDITION DETAILS: 0.2500 kg/ha, rated three to four weeks after treatment
Lab note: record the figure alone, no unit after it.

Prompt line: GET herbicidal effect rating, ORYSAT (rice tolerance) | system: Oryza sativa, (L.) Tebonnet | item: CCc1ccc(OC(C)C(=O)OC)c(-c2nsc3ccc(-n4c(=O)cc(C(F)(F)F)n(C)c4=O)cc23)c1 (centres unmarked)
Response line: 9.0

Prompt line: // output herbicidal effect rating, ORYSAT (rice tolerance); input `COc1ccc(C)cc1-c1nsc2ccc(-n3c(=O)cc(C(F)(F)F)n(C)c3=O)cc12` ; system Oryza sativa, (L.) Tebonnet
Response line: 7.7

Prompt line: Report herbicidal effect rating, ORYSAT (rice tolerance) under test system Oryza sativa, (L.) Tebonnet for `CCc1nsc2ccc(-n3c(=O)cc(C(F)(F)F)n(C)c3=O)cc12` .
Response line: 9.0

Prompt line: Write down measured herbicidal effect rating, ORYSAT (rice tolerance) (Oryza sativa, (L.) Tebonnet) for this molecule. `COc1ccc(C(C)C)cc1-c1nsc2ccc(-n3c(=O)cc(C(F)(F)F)n(C)c3=O)cc12`
Response line: 3.0

Prompt line: State herbicidal effect rating, ORYSAT (rice tolerance) (Oryza sativa, (L.) Tebonnet) of `COCc1nsc2ccc(-n3c(=O)cc(C(F)(F)F)n(C)c3=O)cc12` .
Response line: 8.0

Prompt line: Name the value of herbicidal effect rating, ORYSAT (rice tolerance) reported for `COc1cc(C)c(C)c(C)c1-c1nsc2ccc(-n3c(=O)cc(C(F)(F)F)n(C)c3=O)cc12` when tested on Oryza sativa, (L.) Tebonnet.
Response line: 0.0

Prompt line: Provide herbicidal effect rating, ORYSAT (rice tolerance), tested on Oryza sativa, (L.) Tebonnet, for `Cn1c(C(F)(F)F)cc(=O)n(-c2ccc3snc(COC(=O)c4ccccc4)c3c2)c1=O` .
Response line: 4.0

Prompt line: Supply herbicidal effect rating, ORYSAT (rice tolerance) measured with Oryza sativa, (L.) Tebonnet for Cc1ccc(OC(C)C#N)c(-c2nsc3ccc(-n4c(=O)cc(C(F)(F)F)n(C)c4=O)cc23)c1 (centres unmarked) .
Response line: 5.0

====

Tested on: Oryza sativa, (L.) Tebonnet
ASSAY TEXT: Rice tolerance to post-transplant applications under flooded paddy conditions (Example 187), ORYSAT (Rice, Tebonnet); on herbicidal effect rating ORYSAT: meaning of each grade not given here
CONDITION DETAILS: Rate 0.1250 kg/ha, rated 3-4 weeks after treatment
ASSAY READOUT: herbicidal effect rating ORYSAT

Prompt line: Fill in reported herbicidal effect rating ORYSAT for this entry: C=CC(CCCC)OC(=O)COc1ccc(C)cc1-c1nsc2ccc(-n3c(=O)cc(C(F)(F)F)n(C)c3=O)cc12 (stereo not shown) [Example 520]
Response line: 4.5

Prompt line: Note down herbicidal effect rating ORYSAT recorded for CCOC(=O)c1ccc(NC(=O)C(C)Oc2ccc(C)cc2-c2nsc3ccc(-n4c(=O)cc(C(F)(F)F)n(C)c4=O)cc23)cc1 (stereo not shown) [Example 541]
Response line: 0.0

Prompt line: Complete the entry with herbicidal effect rating ORYSAT for Cn1c(C(F)(F)F)cc(=O)n(-c2ccc3snc(-c4ccccc4OCC(N)=O)c3c2)c1=O [Example 548]
Response line: 4.0

Prompt line: Hello, please tell me recorded herbicidal effect rating ORYSAT for this one: C=CCOC(=O)C(C)(C)Oc1ccc(C)cc1-c1nsc2ccc(-n3c(=O)cc(C(F)(F)F)n(C)c3=O)cc12 [Example 530]
Response line: 3.0

Prompt line: Identify the reported herbicidal effect rating ORYSAT for the following entry. COCCCOCCCOC(=O)COc1ccc(C)cc1-c1nsc2ccc(-n3c(=O)cc(C(F)(F)F)n(C)c3=O)cc12 [Example 523]
Response line: 5.5

Prompt line: Fill in herbicidal effect rating ORYSAT for record COCCCOCCCOC(=O)COc1ccc(C)cc1-c1nsc2ccc(-n3c(=O)cc(C(F)(F)F)n(C)c3=O)cc12 [Example 536]
Response line: 1.0

Prompt line: Return herbicidal effect rating ORYSAT for the following compound: Cc1ccc(OCC(=O)NS(=O)(=O)C(C)C)c(-c2nsc3ccc(-n4c(=O)cc(C(F)(F)F)n(C)c4=O)cc23)c1 [Example 560]
Response line: 2.0

Prompt line: Please indicate herbicidal effect rating ORYSAT recorded for Cn1c(C(F)(F)F)cc(=O)n(-c2ccc3snc(-c4ccccc4OCC(N)=O)c3c2)c1=O [Example 563]
Response line: 7.0

Prompt line: Determine from records and report herbicidal effect rating ORYSAT for Cc1ccc(C(=O)C(C)Oc2ccccc2-c2nsc3ccc(-n4c(=O)cc(C(F)(F)F)n(C)c4=O)cc23)cc1C (stereo not shown) [Example 550]
Response line: 0.0

Prompt line: Specify herbicidal effect rating ORYSAT for Cc1ccc(OC(C)C(=O)c2ccc(C)c(C)c2)c(-c2nsc3ccc(-n4c(=O)cc(C(F)(F)F)n(C)c4=O)cc23)c1 (stereo not shown) [Example 542] and stop.
Response line: 0.0

Prompt line: Using known records, supply herbicidal effect rating ORYSAT for CCCCCCC#CCCOC(=O)COc1ccc(C)cc1-c1nsc2ccc(-n3c(=O)cc(C(F)(F)F)n(C)c3=O)cc12 [Example 522]
Response line: 4.0

Prompt line: Provide measured herbicidal effect rating ORYSAT value, entry: CSCCCCOC(=O)COc1ccc(C)cc1-c1nsc2ccc(-n3c(=O)cc(C(F)(F)F)n(C)c3=O)cc12 [Example 518]
Response line: 4.0

Prompt line: For the compound Cc1ccc(OCC(=O)c2ccc(OC(F)F)cc2)c(-c2nsc3ccc(-n4c(=O)cc(C(F)(F)F)n(C)c4=O)cc23)c1 [Example 543] , give its reported herbicidal effect rating ORYSAT.
Response line: 1.0
